# IC50 values compiled below
Target: human Mas receptor (Homo sapiens, UniProt P04201)
Construct: expressed in transfected cells; host or cells: HEK293 (ATCC CRL-1573)
Sequence (P04201 1-325): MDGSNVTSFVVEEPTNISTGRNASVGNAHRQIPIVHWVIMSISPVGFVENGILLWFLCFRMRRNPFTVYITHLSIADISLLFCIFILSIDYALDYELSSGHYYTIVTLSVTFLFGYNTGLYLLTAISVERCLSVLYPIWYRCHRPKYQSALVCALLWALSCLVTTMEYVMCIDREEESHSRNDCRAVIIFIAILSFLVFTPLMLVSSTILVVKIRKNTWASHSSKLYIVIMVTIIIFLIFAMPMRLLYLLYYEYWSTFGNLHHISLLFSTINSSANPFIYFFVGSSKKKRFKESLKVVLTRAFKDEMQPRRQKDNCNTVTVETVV
Assay: HTRF IP1 assay, HEK293 cells expressing human Mas receptor
Type: cell-based
Details: IP assay, HEK293 cells stably expressing human Mas, 4 h; means ± SEM; read-out: Human IC50
Write the figure, then the unit, nothing else.

INSERT INTO results (compound, recorded_result) VALUES
  ('COc1cc([N+](=O)[O-])ccc1S(=O)(=O)N1CC(CN2CCN(c3ccccn3)CC2)C(c2cccc(F)c2)C1 (centres unmarked) [AR234960]', '351 nM');

Query compound follows.
// sample C=CCCN1CCC2(CC1)CN(C(=O)c1c(F)cccc1F)c1ccc(Cl)cc12 [AR244555] , its IC50 was 186 nM

====

Target: rat Mas receptor (Rattus norvegicus)
Construct: expressed in transfected cells; host or cells: HEK293 (ATCC CRL-1573)
Sequence (P12526 whole entry): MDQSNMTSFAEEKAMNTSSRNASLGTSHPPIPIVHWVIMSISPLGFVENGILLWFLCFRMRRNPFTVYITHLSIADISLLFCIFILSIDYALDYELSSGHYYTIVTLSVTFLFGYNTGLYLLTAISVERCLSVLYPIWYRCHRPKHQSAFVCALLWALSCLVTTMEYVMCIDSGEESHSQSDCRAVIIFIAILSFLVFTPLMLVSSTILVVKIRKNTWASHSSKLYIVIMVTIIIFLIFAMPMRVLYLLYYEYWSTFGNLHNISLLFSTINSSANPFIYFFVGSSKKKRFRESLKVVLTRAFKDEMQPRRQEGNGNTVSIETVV
Experiment: HTRF IP1 assay, HEK293 cells expressing rat Mas receptor
Format: cell-based
Details: HTRF IP1 assay, rat Mas receptor (Table B.1); read-out: IC50
Doc: threshold 0.3 µM (exclusive). Items with IC50 beneath it return yes; others return no.

INSERT INTO assay_data (molecule, group_label) VALUES
  ('O=C(Nc1ccc(Cl)cc1N1CCN(CCC(F)(F)F)CC1)c1ccc(CN(CCO)CCO)cc1F [Compound 144]', 'yes');

Task: Identify whether the molecule C[C@@H](O)CNCc1ccc(C(=O)Nc2ccc(Cl)cc2N2CCN(CCC(F)(F)F)CC2)c(F)c1 [Compound 130] records IC50 below 0.3 µM.
Result: yes

Task: Identify whether the molecule O=C(Nc1ccc(Cl)cc1N1CCN(CCC(F)(F)F)CC1)c1ccc(N2CCCC2)cc1 [Compound 41] records IC50 below 0.3 µM.
Result: no

Task: Identify whether the molecule CCN1CCCCC(NCc2ccc(C(=O)Nc3ccc(Cl)cc3N3CCN(CCC(F)(F)F)CC3)c(F)c2)C1=O (centres unmarked) [Compound 117] records IC50 below 0.3 µM.
Result: no

Task: Identify whether the molecule O=C(Nc1ccc(Cl)cc1N1CCN(CCC(F)(F)F)CC1)c1ccc(CN2CCC[C@@H](CO)C2)c(F)c1F [Compound 252] records IC50 below 0.3 µM.
Result: yes

Task: Identify whether the molecule CCOC(=O)CN1Cc2ccc(C(=O)Nc3ccc(Cl)cc3N3CCN(CCC(F)(F)F)CC3)cc2C1 [Compound 27] records IC50 below 0.3 µM.
Result: no

Task: Identify whether the molecule CN(CC(=O)O)Cc1ccc(C(=O)Nc2ccc(Cl)cc2N2CCN(CCC(F)(F)F)CC2)c(F)c1F [Compound 210] records IC50 below 0.3 µM.
Result: yes

Task: Identify whether the molecule C[C@H](NCc1ccc(C(=O)Nc2ccc(Cl)cc2N2CCN(CCC(F)(F)F)CC2)c(F)c1)C(N)=O [Compound 67] records IC50 below 0.3 µM.
Result: yes

Origin of measurements: patent US20140309192A1
